# TEST_DETAILS: survival after telomere uncapping, modulators, primary screen, cell-based (AID 1259312);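 further: virus expresses mutant telomerase RNA that uncaps telomeres and kills cells; compound added 2 days after infection so exposure lasts 3 days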
# RUN_CONDITIONS: HCT116 + Ad-hTR-mut, MTT, 5 d; at 10 µM
Screen size: about 4,500 compounds; about 200 (4.4%) were called active.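 How the source made its calls: active means cell survival measured by absorbance rises more than 2.5-fold over infected cells without compound; inactive means the rest.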 Many of the other results were omitted from the sample, so actives are more common in it than they were.
Just give me one of these, please: yes for active, no for inactive

For Clc1ccc(N=Cc2cccc3ccccc23)nc1 , what call appears in the results of this test?
no

For O=C(O)c1[nH]ncc1[N+](=O)[O-] , what call appears in the results of this test?
no

For Cc1ccc(-c2nnnn2C(C#N)=P(c2ccccc2)(c2ccccc2)c2ccccc2)cc1 , what call appears in the results of this test?
yes

For COc1cc(C2C(C(=O)OC3CCCCC3)=C(C)NC3=C2C(=O)CC(C)(C)C3)cc(OC)c1OC (centres undefined) , what call appears in the results of this test?
no

For Clc1[nH]nc2ccccc12 , what call appears in the results of this test?
no

For CNC(=S)Nc1ccccc1 , what call appears in the results of this test?
no

For Cc1ccc2c(c1)C(O)(CC(=O)c1ccc3c(c1)OCO3)C(=O)N2 (centres undefined) , what call appears in the results of this test?
no

For O=C(CCn1cnnn1)Nc1nc2cc(OC(F)(F)F)ccc2s1 , what call appears in the results of this test?
no

For Cc1ccc(-c2nnc(CSc3nnc(-c4ccccc4)o3)o2)n1C , what call appears in the results of this test?
no

For Oc1[nH]c(=S)sc1/C=C/C=C/C=Nc1ccccc1 , what call appears in the results of this test?
no

For O=c1[nH]c2ccc(F)cc2c(=O)c2ccccc12 , what call appears in the results of this test?
no

For COC1OC(C)C(OCc2ccccc2)C(O)C1O (centres undefined) , what call appears in the results of this test?
no

For O=[N+]([O-])c1cc(Br)cc(C=NCCCCCCN=Cc2cc(Br)cc([N+](=O)[O-])c2O)c1O , what call appears in the results of this test?
no

For Oc1ccc2ccccc2c1C=Nc1ccc(Cl)cn1 , what call appears in the results of this test?
yes

For OCc1ccccc1O[C@@H]1O[C@H](CO)[C@@H](O)[C@H](O)[C@H]1O , what call appears in the results of this test?
no

For N#CC1=C(N)N(Cc2ccccc2)C2=C(COC/C2=C/c2cccnc2)C1c1cccnc1 (centres undefined) , what call appears in the results of this test?
yes

For Oc1ccc2ccccc2c1C=NCCCCCCN=Cc1c(O)ccc2ccccc12 , what call appears in the results of this test?
no

For CCOC(=O)c1cnn2cc(-c3[nH]ncc3[N+](=O)[O-])cnc12 , what call appears in the results of this test?
no

For Cc1sc(NC(=O)Cn2cnc([N+](=O)[O-])n2)c(C(N)=O)c1C , what call appears in the results of this test?
no

For N#Cc1cnn2cc(-c3[nH]ncc3[N+](=O)[O-])cnc12 , what call appears in the results of this test?
yes

For O=c1[nH]c(/C=C/c2ccc(Br)cc2)c([N+](=O)[O-])c(=O)[nH]1 , what call appears in the results of this test?
yes

For O=c1[nH]cnc2sc3c(c12)CCCC3 , what call appears in the results of this test?
no

For N#CC1=C(N)Oc2ccc(N)cc2C1c1cccnc1 (centres undefined) , what call appears in the results of this test?
no

For O=c1[nH]n2cc(-c3[nH]ncc3[N+](=O)[O-])cnc2c1[N+](=O)[O-] , what call appears in the results of this test?
yes

For C#CCN1C(=O)S/C(=C\c2ccc(N3CCCC3)cc2)C1=O , what call appears in the results of this test?
no

For Cc1sc2ccccc2[n+]1CCCS(=O)(=O)[O-] , what call appears in the results of this test?
yes

For CCCN=C(CC)c1c(C(F)(F)F)[nH]n(-c2nc3ccccc3s2)c1=O , what call appears in the results of this test?
no

For S=c1[nH]ccn1-c1ccccc1 , what call appears in the results of this test?
no

For Nc1ccc(N2CCOCC2)c(Br)c1 , what call appears in the results of this test?
no

For Nc1ccc(N2CCOCC2)c(Cl)c1 , what call appears in the results of this test?
yes

For O=[N+]([O-])c1cc(Br)cc(C=Nc2cc(Cl)cc(Cl)c2)c1O , what call appears in the results of this test?
no

For Oc1ccc2ccccc2c1/C=N/c1ccccn1 , what call appears in the results of this test?
yes

For NC(=O)c1no[n+]([O-])c1C(N)=O , what call appears in the results of this test?
no

For Oc1ccc(Br)cc1/C=N/c1nccs1 , what call appears in the results of this test?
no

For O=c1[nH]c(=O)c2cc3c(=O)[nH]c(=O)c3cc12 , what call appears in the results of this test?
yes

For O=c1[nH]c(/C=C/c2ccc(Br)cc2)nc(O)c1[N+](=O)[O-] , what call appears in the results of this test?
no

For O=C1C=CC(=O)N1c1cc(Cl)cc(Cl)c1 , what call appears in the results of this test?
no

For N#Cc1c(-c2ccc(Cl)cc2Cl)csc1N , what call appears in the results of this test?
no

For O=C(NCCN1CCOCC1)C(=O)NCCN1CCOCC1 , what call appears in the results of this test?
no

For Oc1ccc(Br)cc1/C=N/c1ccccn1 , what call appears in the results of this test?
no

For N#CC(C(N)=S)=P(c1ccccc1)(c1ccccc1)c1ccccc1 , what call appears in the results of this test?
no

For NC(=O)CSc1nnc(SCC(N)=O)s1 , what call appears in the results of this test?
no

For Cc1cc(C)c2oc(-c3cc(N)ccc3Cl)nc2c1 , what call appears in the results of this test?
no

For NC(=O)c1c(NC(=O)CN2CCCCC2)sc2c1CCCC2 , what call appears in the results of this test?
no

For OCCN=Cc1c(O)ccc2ccccc12 , what call appears in the results of this test?
no

For CCCCCCCN=C(C)c1c(C(F)(F)F)[nH]n(-c2nc3ccccc3s2)c1=O , what call appears in the results of this test?
yes

For Nc1nc(=S)n(-c2ccccc2)[nH]1 , what call appears in the results of this test?
no

For COC1OC(COC(c2ccccc2)(c2ccccc2)c2ccccc2)C(O)C(O)C1O (centres undefined) , what call appears in the results of this test?
yes

For CCCCc1ccc(C2C3=C(CC(C)(C)CC3=O)OC3=C2C(=O)CC(C)(C)C3)s1 , what call appears in the results of this test?
no

Provenance of the data: PubChem BioAssay AID1259312
